// note: pIC50 values for Monoglyceride lipase (Mus musculus, UniProt O35678) were reported in different studies
pIC50: −log10 of the molar value.

compound | pIC50
O=C(OC(C(F)(F)F)C(F)(F)F)N1CCC2(CCCN2C(=O)c2ccn(-c3ccccc3)n2)CC1 | > 7.00
COc1cc(-c2ccccc2)ccc1CN1CCN(C(=O)n2cc(NS(C)(=O)=O)cn2)CC1 | 6.00 to 7.00
CS(=O)(=O)Nc1cnn(C(=O)N2CCN(Cc3ccc(-c4ccccc4)cc3Cl)CC2)c1 | 6.00 to 7.00
CC(=O)N(C)c1cnn(C(=O)N2CC3CN(Cc4cc(Cl)ccc4Cl)CC3C2)c1 (centres unmarked) | ≥ 7.00
CC(=O)N(C)c1cnn(C(=O)N2CCN(Cc3cccc(C(F)(F)F)c3)CC2)c1 | ≥ 7.00
O=C(OC(C(F)(F)F)C(F)(F)F)N1CCC2(CC1)CN(Cc1c(Cl)cccc1N1CCOCC1)C2 | > 7.00

Look up and state reported pIC50 for O=C(OC(C(F)(F)F)C(F)(F)F)N1CCC2(CCCN2Cc2c[nH]c3cccc(Cl)c23)CC1
6.00 to 7.00

Look up and state reported pIC50 for CC(=O)N(C)c1cnn(C(=O)N2CC3CN(Cc4c(Cl)cccc4Cl)CC3C2)c1 (centres unmarked)
≥ 7.00

====

// note: IC50 values for Monoglyceride lipase (Mus musculus) were reported in different studies

Illustrative cases are given below, each with its answer.
compound | IC50
CS(=O)(=O)Nc1cnn(C(=O)N2CC3CN(Cc4cccc(Cl)c4)CC3C2)c1 (stereo not shown) | 1000 to 10000 nM
O=C(OC(C(F)(F)F)C(F)(F)F)N1CCC2(CC1)CN(Cc1c(N3CC4COCC4C3)cccc1C(F)(F)F)C2 (stereo not shown) | < 100 nM
O=C(OC(C(F)(F)F)C(F)(F)F)N1CCC2(CC1)CN(Cc1ccc(N3CCCC3)cc1)C2 | < 100 nM
CS(=O)(=O)N1CCc2cccc(CN3CCC4(CC3)CCN(C(=O)OC(C(F)(F)F)C(F)(F)F)C4)c2C1 | < 100 nM
Cc1c(CN2CCCC23CCN(C(=O)OC(C(F)(F)F)C(F)(F)F)CC3)sc2ccccc12 | < 100 nM
O=C(OC(C(F)(F)F)C(F)(F)F)N1CCC2(CC1)CN(Cc1ccc(Cl)cc1N1CCOCC1)C2 | < 100 nM

From here, focus on the item given below.
Look up and state reported IC50 for CC(=O)N(C)c1cnn(C(=O)N2CC3CN(Cc4ccc(C(F)(F)F)c(N5CCOCC5)c4)CC3C2)c1 (stereo not shown)
≤ 100 nM

====

// note: IC50 values for UniProtKB O35678 were reported in different studies

Illustrative cases are given below, each with its answer.
compound | value.measured
CC(=O)N(C)c1cnn(C(=O)N2CC3CN(Cc4ccc(N5CCOCC5)cc4Cl)CC3C2)c1 (centres unmarked) | ≤ 100 nM
CC(=O)N(C)c1cnn(C(=O)N2CC3CN(Cc4ccc(Cl)cc4Cl)CC3C2)c1 (centres unmarked) | ≤ 100 nM
CCc1cc(CN2CCC3(CCN(C(=O)OC(C(F)(F)F)C(F)(F)F)CC3)C2)n(C2CCOCC2)n1 | < 100 nM

Look up and state reported IC50 for CC(=O)N(C)c1cnn(C(=O)N2CC3CN(Cc4cccc(Oc5ccccn5)c4)CC3C2)c1 (centres unmarked)
100 to 1000 nM

Look up and state reported IC50 for CC(=O)N(C)c1cnn(C(=O)N2CCC3(CC2)CN(Cc2ccc(Cl)c(Cl)c2)C3)c1
≤ 100 nM

Look up and state reported IC50 for CC(=O)N(C)c1cnn(C(=O)N2CC3CN(Cc4ccc(Cl)cc4)CC3C2)c1 (centres unmarked)
100 to 1000 nM

Look up and state reported IC50 for CCN1CC2(CCN(c3cc(Cl)ccc3CN3CCN(C(=O)OC(C(F)(F)F)C(F)(F)F)CC3)C2)C1
100 to 1000 nM

Look up and state reported IC50 for CC(=O)N(C)c1cnn(C(=O)N2CCC3(CCN(Cc4cccc(Cl)c4)C3)C2)c1 (centres unmarked)
1000 to 10000 nM
